Molecular target: human LTBR on cells (human, UniProt P36941 31-435)
Assay: cell-based or functional assay
READOUT: NFκB luc, 58.59 ng/ml, with x linker
Give the number first and the unit second.

P1AF0080 (antibody, human IgG1, kappa, L234A L235A, V domains shown, human IgG1 PG LALA; from transgenic rabbit immunization; also called LTBR (0080)) VH: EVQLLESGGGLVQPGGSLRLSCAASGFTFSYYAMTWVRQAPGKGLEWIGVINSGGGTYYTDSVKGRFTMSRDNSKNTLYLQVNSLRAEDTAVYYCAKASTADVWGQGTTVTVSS VL: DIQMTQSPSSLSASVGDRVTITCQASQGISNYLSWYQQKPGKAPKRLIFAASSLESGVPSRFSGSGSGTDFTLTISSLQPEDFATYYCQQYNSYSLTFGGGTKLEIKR: 32300 RLU
P1AE9452 (antibody, human IgG1, kappa, L234A L235A, V domains shown, human IgG1 PG LALA; from transgenic rabbit immunization; also called LTBR (9452)) VH: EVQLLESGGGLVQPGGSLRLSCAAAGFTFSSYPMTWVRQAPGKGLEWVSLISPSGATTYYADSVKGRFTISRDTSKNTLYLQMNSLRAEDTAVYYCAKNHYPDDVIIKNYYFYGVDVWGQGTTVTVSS VL: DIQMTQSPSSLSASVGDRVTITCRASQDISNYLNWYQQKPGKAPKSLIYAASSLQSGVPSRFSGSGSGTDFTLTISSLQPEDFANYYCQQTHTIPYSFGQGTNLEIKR: 24200 RLU

query: Name the recorded NFκB luc, 58.59 ng/ml, with x linker for P1AE9450 (antibody, human IgG1, kappa, L234A L235A, V domains shown, human IgG1 PG LALA; from transgenic rabbit immunization; also called LTBR (9450)) VH: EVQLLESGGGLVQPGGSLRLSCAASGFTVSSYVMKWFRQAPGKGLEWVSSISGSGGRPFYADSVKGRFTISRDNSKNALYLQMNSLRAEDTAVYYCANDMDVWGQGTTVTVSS VL: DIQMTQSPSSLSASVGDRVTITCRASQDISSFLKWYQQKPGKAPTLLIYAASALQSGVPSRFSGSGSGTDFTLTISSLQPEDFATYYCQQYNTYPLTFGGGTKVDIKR .
result: 24100 RLU
